For each of the molecules below, state its IC50.
System: WSU-DLCL2 cell line
Experiment: Cell proliferation analysis (Cell Titer Glo, 6 days)
Format: cell-based
Conditions: Homo sapiens, WSUDLCL2, 144 h; WSU-DLCL2 cells, 6 days incubation, cell viability by ATP (Cell Titer Glo)

Prompt: Retrieve IC50 measured for CCN(c1cc(Cl)cc(C(=O)NCc2nccs2)c1C)C1CCOCC1 [Cpd 24] and print it.
Response: > 50 µM

Prompt: Retrieve IC50 measured for CCN(c1cc(Cl)cc(C(=O)NCc2cc(C)nn2C)c1C)C1CCOCC1 [Cpd 31] and print it.
Response: > 50 µM

Prompt: Retrieve IC50 measured for CCN(c1cc(Cl)cc(C(=O)NCc2cnn(C)c2C)c1C)C1CCOCC1 [Cpd 27] and print it.
Response: > 50 µM

Prompt: Retrieve IC50 measured for CCN(c1cc(Cl)cc(C(=O)NCc2cn3ccsc3n2)c1C)C1CCOCC1 [Cpd 26] and print it.
Response: > 50 µM

Prompt: Retrieve IC50 measured for CCN(c1cc(Cl)cc(C(=O)NCc2c(C)cc(C)n3ccnc23)c1C)[C@H]1CC[C@H](N(C)C)CC1 [Cpd 1] and print it.
Response: > 25 µM

Reference source for all entries: patent US20160031907A1
